assayed target: Acetylcholinesterase (Electrophorus electricus, UniProt O42275)
Sequence (O42275 whole entry): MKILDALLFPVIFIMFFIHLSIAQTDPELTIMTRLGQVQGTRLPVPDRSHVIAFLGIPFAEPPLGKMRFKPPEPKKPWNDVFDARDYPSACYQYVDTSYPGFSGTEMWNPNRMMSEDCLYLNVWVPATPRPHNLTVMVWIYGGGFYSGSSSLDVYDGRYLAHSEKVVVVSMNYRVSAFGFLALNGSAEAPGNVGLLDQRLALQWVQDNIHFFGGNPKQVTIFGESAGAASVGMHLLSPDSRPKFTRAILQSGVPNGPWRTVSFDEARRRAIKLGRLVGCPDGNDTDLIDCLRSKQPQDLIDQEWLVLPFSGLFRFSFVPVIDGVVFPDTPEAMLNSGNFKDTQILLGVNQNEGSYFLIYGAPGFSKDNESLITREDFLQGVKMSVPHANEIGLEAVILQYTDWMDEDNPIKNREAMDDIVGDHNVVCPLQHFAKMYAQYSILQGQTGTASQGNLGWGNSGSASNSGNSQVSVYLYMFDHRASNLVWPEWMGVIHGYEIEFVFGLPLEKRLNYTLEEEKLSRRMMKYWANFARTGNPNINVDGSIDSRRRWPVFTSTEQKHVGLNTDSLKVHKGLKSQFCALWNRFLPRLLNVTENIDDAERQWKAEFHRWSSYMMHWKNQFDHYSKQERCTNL
assay: Inhibition of electric eel AChE
// values below are reported pIC50
Note on pIC50: it is the negative log10 of concentration, concentration in mol/L.

c1ccc2c(c1)CCCN1Cc3cc(OCCCN4CCCCC4)ccc3N=C21 | 7.24
c1cc2c(cc1OCCCN1CCCCC1)CN1CCCC1=N2 | 7.16
c1ccc2c(c1)CCN1Cc3cc(OCCCN4CCCCC4)ccc3N=C21 | 8.26
c1ccc2c(c1)CN1Cc3cc(OCCCN4CCCCC4)ccc3N=C21 | 8.16
c1cc2c(cc1OCCCN1CCCCC1)CN1CCCCCC1=N2 | 7.37

Return pIC50 (reported value) for this molecule: c1cc2c(cc1OCCCN1CCCCC1)CN1CCCCC1=N2 7.48
